procedure text: Luminescence activity assay of purified Gaussia luciferase mutants on coelenterazine
Format: biochemical
Design: key: ratio of mutant luminescence intensity to wild-type Gaussia luciferase
condition label: Substrate CTZ (Table 16)
Description: In this Example, the protein concentration was determined with a BCA quantitative kit (Thermo Scientific™ Pierce™ BCA Protein Assay Kit) accurately. […] The mutation site of the mutant, the measured luminescence intensity, the ratio of luminescence intensities of the advantageous mutants to the wild-type Gaussia luciferase without the signal peptide having the sequence shown in SEQ ID NO: 3 are shown in Table 15. […]
Activity of mutant relative to wild-type Gaussia luciferase without the signal peptide values for the molecules below.
readout: Activity of mutant relative to wild-type Gaussia luciferase without the signal peptide

molecule	recorded measurement
K66N H79K P84A E102E S103I D123N L124M V138E K159N I179*: Gaussia luciferase mutant (protein, SIGNAL (1)..(17), Gaussia luciferase mutant) MGVKVLFALICIAVAEAKPTENNEDFNIVAVASNFATTDLDADRGKLPGKKLPLEVLKEMEANARNAGCTRGCLICLSKIKCTAKMKKFIPGRCHTYEGDKEIAQGGIGEAIVDIPEIPGFKNMEPMEQFIAQVDLCEDCTTGCLKGLANVQCSDLLKNWLPQRCATFASKIQGQVDKKGAGGD	0.000
Q152R S154F Q163D S170T G174N K178T A182Y: Gaussia luciferase mutant (protein, SIGNAL (1)..(17), Gaussia luciferase mutant) MGVKVLFALICIAVAEAKPTENNEDFNIVAVASNFATTDLDADRGKLPGKKLPLEVLKEMEANARKAGCTRGCLICLSHIKCTPKMKKFIPGRCHTYEGDKESAQGGIGEAIVDIPEIPGFKDLEPMEQFIAQVDLCVDCTTGCLKGLANVRCFDLLKKWLPDRCATFATKIQNQVDTIKGYGGD	0.020
K66R E102K E110G D123N V138D: Gaussia luciferase mutant (protein, SIGNAL (1)..(17), Gaussia luciferase mutant) MGVKVLFALICIAVAEAKPTENNEDFNIVAVASNFATTDLDADRGKLPGKKLPLEVLKEMEANARRAGCTRGCLICLSHIKCTPKMKKFIPGRCHTYEGDKKSAQGGIGGAIVDIPEIPGFKNLEPMEQFIAQVDLCDDCTTGCLKGLANVQCSDLLKKWLPQRCATFASKIQGQVDKIKGAGGD	1.000
F26C V29L A30D V31L A32V S33G L40I: Gaussia luciferase mutant (protein, SIGNAL (1)..(17), Gaussia luciferase mutant) MGVKVLFALICIAVAEAKPTENNEDCNILDLVGNFATTDIDADRGKLPGKKLPLEVLKEMEANARKAGCTRGCLICLSHIKCTPKMKKFIPGRCHTYEGDKESAQGGIGEAIVDIPEIPGFKDLEPMEQFIAQVDLCVDCTTGCLKGLANVQCSDLLKKWLPQRCATFASKIQGQVDKIKGAGGD	0.000
A17V H79K P84A E102D S103T E110P L124M: Gaussia luciferase mutant (protein, SIGNAL (1)..(17), Gaussia luciferase mutant) MGVKVLFALICIAVAEVKPTENNEDFNIVAVASNFATTDLDADRGKLPGKKLPLEVLKEMEANARKAGCTRGCLICLSKIKCTAKMKKFIPGRCHTYEGDKDTAQGGIGPAIVDIPEIPGFKDMEPMEQFIAQVDLCVDCTTGCLKGLANVQCSDLLKKWLPQRCATFASKIQGQVDKIKGAGGD	0.198
K66N E102D S103T E110G L124M V138E: Gaussia luciferase mutant (protein, SIGNAL (1)..(17), Gaussia luciferase mutant) MGVKVLFALICIAVAEAKPTENNEDFNIVAVASNFATTDLDADRGKLPGKKLPLEVLKEMEANARNAGCTRGCLICLSHIKCTPKMKKFIPGRCHTYEGDKDTAQGGIGGAIVDIPEIPGFKDMEPMEQFIAQVDLCEDCTTGCLKGLANVQCSDLLKKWLPQRCATFASKIQGQVDKIKGAGGD	0.134
F26T N27D V29P A30G V31I A32G S33I A36I T37L L40I: Gaussia luciferase mutant (protein, SIGNAL (1)..(17), Gaussia luciferase mutant) MGVKVLFALICIAVAEAKPTENNEDTDIPGIGINFILTDIDADRGKLPGKKLPLEVLKEMEANARKAGCTRGCLICLSHIKCTPKMKKFIPGRCHTYEGDKESAQGGIGEAIVDIPEIPGFKDLEPMEQFIAQVDLCVDCTTGCLKGLANVQCSDLLKKWLPQRCATFASKIQGQVDKIKGAGGD	0.231
K66R P84A E102A S103I A104G E110A: Gaussia luciferase mutant (protein, SIGNAL (1)..(17), Gaussia luciferase mutant) MGVKVLFALICIAVAEAKPTENNEDFNIVAVASNFATTDLDADRGKLPGKKLPLEVLKEMEANARRAGCTRGCLICLSHIKCTAKMKKFIPGRCHTYEGDKAIGQGGIGAAIVDIPEIPGFKDLEPMEQFIAQVDLCVDCTTGCLKGLANVQCSDLLKKWLPQRCATFASKIQGQVDKIKGAGGD	0.122
K66N P84L E102A S103I A104G E110P D123N L124M V138D: Gaussia luciferase mutant (protein, SIGNAL (1)..(17), Gaussia luciferase mutant) MGVKVLFALICIAVAEAKPTENNEDFNIVAVASNFATTDLDADRGKLPGKKLPLEVLKEMEANARNAGCTRGCLICLSHIKCTLKMKKFIPGRCHTYEGDKAIGQGGIGPAIVDIPEIPGFKNMEPMEQFIAQVDLCDDCTTGCLKGLANVQCSDLLKKWLPQRCATFASKIQGQVDKIKGAGGD	0.513
